Measured inhibition at 1 µM, listed per entry.
- Test System: S. aureus GyrB ATPase (Staphylococcus aureus)
- Sequence (P0A0K8 whole entry): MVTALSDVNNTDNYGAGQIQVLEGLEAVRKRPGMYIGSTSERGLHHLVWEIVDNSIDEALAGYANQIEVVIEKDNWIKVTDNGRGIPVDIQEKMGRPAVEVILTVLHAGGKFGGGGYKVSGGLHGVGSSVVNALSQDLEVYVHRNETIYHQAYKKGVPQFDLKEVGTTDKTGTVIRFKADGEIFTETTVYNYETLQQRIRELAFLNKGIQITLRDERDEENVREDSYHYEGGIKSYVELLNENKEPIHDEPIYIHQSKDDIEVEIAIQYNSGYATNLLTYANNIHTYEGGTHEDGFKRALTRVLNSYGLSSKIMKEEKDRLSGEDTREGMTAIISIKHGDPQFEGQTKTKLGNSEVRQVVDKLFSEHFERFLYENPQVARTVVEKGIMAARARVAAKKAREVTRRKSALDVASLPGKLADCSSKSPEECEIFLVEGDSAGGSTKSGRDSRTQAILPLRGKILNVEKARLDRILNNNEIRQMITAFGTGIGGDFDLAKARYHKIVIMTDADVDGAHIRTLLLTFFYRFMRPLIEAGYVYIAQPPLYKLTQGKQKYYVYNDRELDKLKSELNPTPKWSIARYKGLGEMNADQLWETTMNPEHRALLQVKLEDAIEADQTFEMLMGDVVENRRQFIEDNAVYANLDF
- Sequence (P0AES4 whole entry, further chain): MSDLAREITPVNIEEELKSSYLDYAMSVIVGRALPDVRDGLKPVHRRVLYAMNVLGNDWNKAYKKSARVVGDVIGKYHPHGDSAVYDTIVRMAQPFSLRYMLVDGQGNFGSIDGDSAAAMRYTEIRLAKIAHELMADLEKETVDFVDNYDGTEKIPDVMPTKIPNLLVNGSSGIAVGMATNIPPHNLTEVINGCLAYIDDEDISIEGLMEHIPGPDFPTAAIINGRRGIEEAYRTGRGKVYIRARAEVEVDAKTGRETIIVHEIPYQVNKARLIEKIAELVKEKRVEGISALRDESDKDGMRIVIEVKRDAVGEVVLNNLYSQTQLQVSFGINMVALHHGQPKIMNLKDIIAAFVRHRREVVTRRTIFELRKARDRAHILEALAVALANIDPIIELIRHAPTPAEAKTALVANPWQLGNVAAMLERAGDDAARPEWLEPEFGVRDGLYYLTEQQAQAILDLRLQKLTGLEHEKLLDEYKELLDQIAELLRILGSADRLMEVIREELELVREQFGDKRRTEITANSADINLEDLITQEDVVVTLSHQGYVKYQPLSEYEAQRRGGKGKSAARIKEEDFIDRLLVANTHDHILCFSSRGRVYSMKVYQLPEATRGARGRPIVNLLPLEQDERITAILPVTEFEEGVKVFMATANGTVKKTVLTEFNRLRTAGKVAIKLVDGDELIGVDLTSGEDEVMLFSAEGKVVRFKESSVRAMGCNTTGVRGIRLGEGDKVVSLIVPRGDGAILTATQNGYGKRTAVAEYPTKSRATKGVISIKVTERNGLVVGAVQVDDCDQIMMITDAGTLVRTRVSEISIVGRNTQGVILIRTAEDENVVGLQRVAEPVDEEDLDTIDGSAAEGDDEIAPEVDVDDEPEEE
- Test Details: S. aureus (SAU) GyrB ATPase inhibition, malachite green phosphate detection (E. coli GyrA + S. aureus GyrB)
- Format: biochemical
- Condition Info: compound concentration of 1.0 μM unless otherwise noted; average value where assay was carried out more than once; read-out: S. aureus (SAU) GyrB ATPase % Inhibition
Observable: inhibition at 1 µM (%)

| Compound | Test System | Observable | Value Reported |
| --- | --- | --- | --- |
| CCCNC(=O)Nc1cc(-c2nc(C(F)(F)F)cs2)c(-c2cncc(-c3n[nH]c(=O)o3)c2)cn1 [Example 44] | S. aureus GyrB ATPase (Staphylococcus aureus) | inhibition at 1 µM | 96 |
| CCNC(=O)Nc1cc(N2CC(C)OC(C)C2)c(-c2cncc(-c3n[nH]c(=O)o3)c2)cn1 (stereo not shown) [Example 149] | S. aureus GyrB ATPase (Staphylococcus aureus) | inhibition at 1 µM | 94 |
| CCNC(=O)Nc1cc(-c2nc(C(F)(F)F)cs2)c(-c2cncc(-c3nnc(N(CC)CC)o3)c2)cn1 [Example 267] | S. aureus GyrB ATPase (Staphylococcus aureus) | inhibition at 1 µM | 98 |
| CCNC(=O)Nc1cc(-c2nc(C(F)(F)F)cs2)c(-c2cc(-c3nnc(C)o3)cnc2OC2CCOCC2)cn1 [Example 141] | S. aureus GyrB ATPase (Staphylococcus aureus) | inhibition at 1 µM | 97 |
| CCNC(=O)Nc1cc(-c2nc(C(F)(F)F)cs2)c(-c2nc(-c3n[nH]c(=O)o3)cs2)cn1 [Example 188] | S. aureus GyrB ATPase (Staphylococcus aureus) | inhibition at 1 µM | 97 |
| CCNC(=O)Nc1cc(-c2nc(C(F)(F)F)cs2)c(-c2cc(OC(C)C)nc(-c3nnc(C)o3)c2)cn1 [Example 80] | S. aureus GyrB ATPase (Staphylococcus aureus) | inhibition at 1 µM | 96 |
| CCNC(=O)Nc1cc(-c2nc(C(F)(F)F)cs2)c(-c2cncc(-c3nnc(N)o3)c2)cn1 [Example 136] | S. aureus GyrB ATPase (Staphylococcus aureus) | inhibition at 1 µM | 102 |

---

Measured inhibition at 1 µM, listed per entry.
- Test System: S. aureus GyrB ATPase (Staphylococcus aureus)
- Test Details: S. aureus (SAU) GyrB ATPase inhibition, malachite green phosphate detection (E. coli GyrA + S. aureus GyrB)
- Format: biochemical
- Condition Info: compound concentration of 1.0 μM unless otherwise noted; average value where assay was carried out more than once; read-out: S. aureus (SAU) GyrB ATPase % Inhibition

| Compound | Measurement Units | inhibition at 1 µM |
| --- | --- | --- |
| CCNC(=O)Nc1cc(-c2nc(C(F)(F)F)cs2)c(-c2cc(OCC3CC3)nc(-c3n[nH]c(=O)o3)c2)cn1 | % | 94 |
| CCNC(=O)Nc1cc(-c2nc(C(F)(F)F)cs2)c(-c2nc(-c3ncnn3C)c(-c3nnc(C)o3)s2)cn1 | % | 101 |
| CCNC(=O)Nc1cc(-c2nc(C(F)(F)F)cs2)c(-c2cc(OC3CCN(C)CC3)nc(-c3n[nH]c(=O)o3)c2)cn1 | % | 116 |
| CCNC(=O)Nc1cc(-c2nc(-c3ccccn3)cs2)c(-c2cncc(-c3n[nH]c(=O)o3)c2)cn1 | % | 95 |
| CCNC(=O)Nc1cc(-c2nc(C(F)(F)F)c(C)s2)c(-c2cncc(-c3n[nH]c(=O)o3)c2)cn1 | % | 100 |
| CCNC(=O)Nc1cc(-c2nc(-c3cnn(C)c3)cs2)c(-c2cncc(S(N)(=O)=O)c2)cn1 | % | 99 |
| CCNC(=O)Nc1cc(-c2cc(C(F)(F)F)nn2C)c(-c2cncc(-c3n[nH]c(=O)o3)c2)cn1 | % | 97 |
| CCNC(=O)Nc1cc(-c2nc(C(F)(F)F)cs2)c(-c2cc(-c3n[nH]c(=O)o3)cnc2N)cn1 | % | 96 |
| CCNC(=O)Nc1cc(-c2nc(C(F)(F)F)cs2)c(-c2cnc(OCCOC)c(-c3n[nH]c(=O)o3)c2)cn1 | % | 97 |
| CCNC(=O)Nc1cc(-c2ccc(N3CCOCC3)cc2)c(-c2cncc(-c3n[nH]c(=O)o3)c2)cn1 | % | 103 |
| CCNC(=O)Nc1cc(-c2nc(C(F)(F)F)cs2)c(-c2cncc(-c3n[nH]c(=O)o3)c2)cn1 | % | 106 |
| CCNC(=O)Nc1cc(-c2nc(-c3cnn(C)c3)cs2)c(-c2cncc(-c3n[nH]c(=O)o3)c2)cn1 | % | 109 |
| CCNC(=O)Nc1cc(-c2nc(C(F)(F)F)cs2)c(-c2cc(-c3n[nH]c(=O)o3)cnc2OCCN2CCN(C)CC2)cn1 | % | 97 |
| CCNC(=O)Nc1cc(-c2nc(C(F)(F)F)cs2)c(-c2cc(-c3nnc(C)o3)cnc2OC(C)CN(C)C)cn1 (centres unmarked) | % | 97 |

Values compiled from patent US20120101100A1.
